Below: a set of entries, each annotated with reported Th-T fluorescence, mean of three wells.
Target: Aβ42 (Homo sapiens)
Sequence (P05067 672-713): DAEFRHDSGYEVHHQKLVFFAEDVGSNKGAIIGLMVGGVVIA
Test: Th-T (thioflavin-T) assay of Aβ42 aggregation
Format: biochemical
Details: time-course reading M107; Supplementary Fig. 47 source data

Solved entries:
>>> df
                                   molecule      target_of_assay  value_observed
0  C=C1CCC2C(C)(CCC=C(C)C)C(O)CCC2(C)C1Cc1c(OC)oc(CO)c(C(=O)OC)c1=O (centres unmarked) [Compound 13]  Aβ42 (Homo sapiens)           1.043
1  C=C1CC[C@@H]2[C@](C)(CC[C@H]3O[C@H](C=C(C)C)C[C@@]23C)[C@@H]1Cc1c(O)c(C)c(C)oc1=O [Compound 10, higginsianin A]  Aβ42 (Homo sapiens)           3.025
2  C=C1CC[C@H]2[C@]3(C)C[C@H](C=C(C)C)O[C@H]3CC[C@]2(C)[C@@H]1Cc1c(OC)oc(C)c(C)c1=O [Compound 24]  Aβ42 (Homo sapiens)           3.935
3  C=C1CCC2C(C)(CCC=C(C)C)C(O)CCC2(C)C1Cc1c(O)c(C)c(C)oc1=O (centres unmarked) [Compound 4]  Aβ42 (Homo sapiens)           2.786
4  C=C1CCC2C(C)(CCC=C(C)C)C(O)CCC2(C)C1Cc1c(O)c(C)c(C)oc1=O (centres unmarked) [Compound 9, higginsianin B]  Aβ42 (Homo sapiens)           2.794

Lookup: Quickly give me recorded Th-T fluorescence, mean of three wells for C=C1CCC2C(C)(CCC=C(C)C)C(O)CCC2(C)C1Cc1c(OC)oc(CO)c(C)c1=O (centres unmarked) [Compound 12]
Found: 2.067

Lookup: Quickly give me recorded Th-T fluorescence, mean of three wells for C=C1CC[C@H]2[C@]3(C)C[C@H](C=C(C)C)O[C@H]3CC[C@]2(C)[C@@H]1Cc1c(O)c(C)c(C)oc1=O [Compound 6, subglutinol B]
Found: 3.094

Lookup: Quickly give me recorded Th-T fluorescence, mean of three wells for C=C1CC[C@@H]2[C@](C)(CC[C@H]3O[C@H](C=C(C)C)C[C@@]23C)[C@@H]1Cc1c(OC)oc(CO)c(C)c1=O [Compound 20]
Found: 4.216

###

Below: a set of entries, each annotated with reported Th-T fluorescence, mean of three wells.
Target: Aβ42 (Homo sapiens)
Assay: Th-T (thioflavin-T) assay of Aβ42 aggregation
Assay type: biochemical
Conditions: Supplementary Fig. 47; reading M138
Form rule: numeric answer, no unit written next to it.

Solved entries:
>>> print(df.to_string())
                                   compound                         outcome_measure  value_observed
0  C=C1CC[C@@H]2[C@](C)(CC[C@H]3O[C@H](C=C(C)C)C[C@@]23C)[C@@H]1Cc1c(O)c(C)c(C)oc1=O  Th-T fluorescence, mean of three wells           2.975
1  C=C1CCC2C3(C)CC(C=C(C)C)OC3CCC2(C)C1Cc1c(OC)oc(C)c(C)c1=O (stereo not drawn)  Th-T fluorescence, mean of three wells           3.768

Switching to the query record.
Lookup: Quickly give me recorded Th-T fluorescence, mean of three wells for `C=C1CC[C@H]2[C@]3(C)C[C@H](C=C(C)C)O[C@H]3CC[C@]2(C)[C@@H]1Cc1c(OC)oc(CO)c(C)c1=O`
Found: 3.771
